# assay-notes: Methanol content to elute DNA-dye sequences from reverse phase HPLC column
# Type: physicochemical
# test-conditions: average over sequences HJA-D and HJAcomp containing the dye
result-type: Av. % MeOH for DNA-dye elution (%)

Reported Av. % MeOH for DNA-dye elution ( CCCCCCOc1ccc2c(c1)C(C)(C)C(=CC=CC=CC1=[N+](CCCO)c3ccc(OCCCCCC)cc3C1(C)C)N2CCCOC(c1ccccc1)(c1ccccc1)c1ccc(OC)cc1.[I-] [Cy5-hex] ) = 51

Reported Av. % MeOH for DNA-dye elution ( COCCOCCOCCOc1ccc2c(c1)C(C)(C)C(=CC=CC=CC1=[N+](CCCO)c3ccc(OCCOCCOCCOC)cc3C1(C)C)N2CCCOC(c1ccccc1)(c1ccccc1)c1ccc(OC)cc1.[I-] [Cy5-Peg] ) = 31.5

Reported Av. % MeOH for DNA-dye elution ( COc1ccc(C(OCCCN2C(=CC=CC=CC3=[N+](CCCO)c4ccc(Cl)cc4C3(C)C)C(C)(C)c3cc(Cl)ccc32)(c2ccccc2)c2ccccc2)cc1.[I-] [Cy5-Cl] ) = 30.5

Reported Av. % MeOH for DNA-dye elution ( COc1ccc(C(OCCCN2C(=CC=CC=CC3=[N+](CCCO)c4ccc(C(C)(C)C)cc4C3(C)C)C(C)(C)c3cc(C(C)(C)C)ccc32)(c2ccccc2)c2ccccc2)cc1.[I-] [Cy5-tBu] ) = 41
